Data provenance is PubChem BioAssay AID1963963.

Tested on: 958667-338-R-J2-PDC tumor spheroids viability;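 also: spheroids exposed to compounds for seven days before readout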
procedure_text: Anticancer human tumor 958667-338-R-J2-PDC patient-derived colon adenocarcinoma cell line growth inhibition [PI3K]
measurement_parameters: second compound 0.00316 µM; first compound 0.316 µM; hits give low values; spheroids with HUVEC and MSC
Text: Combinatorial screen of targeted agents with the PI3K inhibitors inavolisib, alpelisib, duvelisib, and copanlisib in multi-cell type tumor spheroids A high-throughput screen of multi-cell type tumor spheroids was designed to identify active combinations of targeted small molecules and PI3K pathway inhibitors. […] Compounds. […] If the clinical Cmax for an agent had not been determined, the highest concentration tested was 10 microM. […]
measurement_name: viability, T/C

CC(Cn1ccc(-c2ccc(C#N)c(Cl)c2)n1)NC(=O)c1cc(C(C)O)[nH]n1 (stereo not given) + COc1c(OCCCN2CCOCC2)ccc2c3n(c(=NC(=O)c4cnc(N)nc4)nc12)CCN3    111%

Lab request: please report viability, T/C under test system 958667-338-R-J2-PDC tumor spheroids viability for Cn1ncc(Cl)c1-c1cc(C(=O)NC(CN)Cc2cccc(F)c2)sc1Cl (stereo not given) + CC(Nc1ccc2c(c1)OCCn1cc(N3C(=O)OCC3C(F)F)nc1-2)C(N)=O 96.2%

Lab request: please report viability, T/C under test system 958667-338-R-J2-PDC tumor spheroids viability for Cn1ncc(Cl)c1-c1cc(C(=O)NC(CN)Cc2cccc(F)c2)sc1Cl (stereo not given) + COc1c(OCCCN2CCOCC2)ccc2c3n(c(=NC(=O)c4cnc(N)nc4)nc12)CCN3 75.5%

Lab request: please report viability, T/C under test system 958667-338-R-J2-PDC tumor spheroids viability for CC1(C)CCC(CN2CCN(c3ccc(C(=O)NS(=O)(=O)c4ccc(NCC5CCOCC5)c([N+](=O)[O-])c4)c(Oc4cnc5[nH]ccc5c4)c3)CC2)=C(c2ccc(Cl)cc2)C1 + CC(Nc1ccc2c(c1)OCCn1cc(N3C(=O)OCC3C(F)F)nc1-2)C(N)=O 95.6%

Lab request: please report viability, T/C under test system 958667-338-R-J2-PDC tumor spheroids viability for CC1(C)CCC(Nc2ncc(C(F)(F)F)c(-c3c[nH]c4c(P(C)(C)=O)c(C#N)ccc34)n2)CN1 (stereo not given) + CC(Nc1ccc2c(c1)OCCn1cc(N3C(=O)OCC3C(F)F)nc1-2)C(N)=O 79.7%
